Test system: HepG2
Experiment: cytotoxicity call (relative viability < 0.9)
Settings: 10 µM
Hit rate of the full screen: of about 39,000 compounds, about 3,300 (8.5%) were called active. The full list was thinned out, with actives kept by preference.
Write down the outcome that applies. Available outcomes: 1 (yes) for active, 0 (no) for inactive

Smiles repr	Classification
C[C@@H]1CN([C@@H](C)CO)C(=O)c2cc(C#Cc3ccccc3F)cnc2O[C@@H]1CN(C)S(=O)(=O)c1ccccc1	0 (no)
C[C@H](CO)N1C[C@H](C)[C@H](CN(C)C(=O)C2CCCCC2)OCCCC[C@H](C)Oc2ccc(NC(=O)Nc3ccc(C(F)(F)F)cc3)cc2C1=O	0 (no)
Cc1ccc(S(=O)(=O)N2C[C@H](O)COC[C@H]3O[C@@H](CC(=O)NCc4ccc(Cl)c(Cl)c4)CC[C@@H]32)cc1	1 (yes)

Incoming: For "COc1ccc(S(=O)(=O)Nc2ccc3c(c2)CC(=O)N([C@H](C)CO)C[C@H](C)[C@@H](CN(C)Cc2ccc(Cl)c(Cl)c2)O3)cc1" , what call appears in the results of this test?
Outgoing: 0 (no)

Incoming: For "CCOC(=O)[C@H]1C/C=C/C[C@H](C(=O)OCC)C(=O)O[C@H]2[C@@H](OC)O[C@H](CO)[C@@H](OC(=O)Nc3cccc(F)c3)[C@@H]2OC1=O" , what call appears in the results of this test?
Outgoing: 1 (yes)

Incoming: For "C[C@H]1CCCCO[C@H](CN(C)C(=O)CCC(F)(F)F)[C@@H](C)CN([C@@H](C)CO)C(=O)c2cc(NS(=O)(=O)c3ccccc3)ccc2O1" , what call appears in the results of this test?
Outgoing: 0 (no)

Incoming: For "C[C@@H]1CN([C@H](C)CO)C(=O)CCCn2cc(nn2)CO[C@H]1CN(C)S(=O)(=O)c1ccc2ccccc2c1" , what call appears in the results of this test?
Outgoing: 0 (no)

Incoming: For "C[C@H]1CN([C@@H](C)CO)S(=O)(=O)c2ccc(C#Cc3ccccc3F)cc2O[C@@H]1CN(C)C(=O)Cc1cccnc1" , what call appears in the results of this test?
Outgoing: 0 (no)

###

Tested on: HepG2
Experiment: cytotoxicity call (relative viability < 0.9)
Conditions: 10 µM
The campaign covered roughly 39,000 compounds. About 3,300 (8.5%) were called active. The list comes from a sample in which actives are over-represented; it also holds close analogues and randomly drawn compounds.
Measurement type: cytotoxicity call

> print(dat)
                                smiles.repr   measurement.type  measured.value
1                        CNC(=O)Cc1cnc(N)s1  cytotoxicity call        inactive
2  CO[C@H]1CN(C)C(=O)c2cc(NC(=O)C3CC3)ccc2OC[C@@H](C)N(C(=O)CN2CCOCC2)C[C@@H]1C  cytotoxicity call        inactive
3  O=C(C[C@H]1C=C[C@@H](NC(=O)Cc2ccccn2)[C@H](CO)O1)NCCCN1CCOCC1  cytotoxicity call        inactive
4  C[C@@H]1CN([C@@H](C)CO)C(=O)c2cccc(NC(=O)Nc3ccc4c(c3)OCO4)c2O[C@H]1CN(C)S(=O)(=O)c1cn(C)cn1  cytotoxicity call        inactive

Next item in the queue.
Incoming: I would be grateful if you could share the reported cytotoxicity call for "CCC(=O)N[C@@H]1CC[C@@H](CC(=O)OC)O[C@@H]1CO" .
Outgoing: inactive

###

System: HepG2
Assay: cytotoxicity call (relative viability < 0.9)
Settings: 10 µM
Among all 39,000 compounds or so, about 3,300 (8.5%) were called active. Shown is part of a subset that was picked to be rich in actives.
Measurement type: cytotoxicity call

Record excerpt, results attached:
> print(dat)
                                   molecule  measured.value
1  C[C@H]1CN([C@@H](C)CO)C(=O)Cc2cc(NC(=O)Nc3ccc(C(F)(F)F)cc3)ccc2O[C@@H]1CN(C)C(=O)Nc1cccc2ccccc12        inactive
2  COc1cccc(NC(=O)N2C[C@@H](O)COC[C@H]3O[C@H](CC(=O)NC4Cc5ccccc5C4)CC[C@@H]32)c1        inactive
3  C[C@@H]1CN([C@H](C)CO)C(=O)c2cc(-c3cncnc3)cnc2O[C@H]1CN(C)C(=O)Nc1ccc2c(c1)OCO2        inactive
4  CO[C@@H]1CN(C)C(=O)c2ccc(NS(C)(=O)=O)cc2OC[C@@H](C)N(C(=O)CN(C)C)C[C@@H]1C        inactive
5  COCC(=O)N[C@H]1C=C[C@@H](CC(=O)N2CCCCC2)O[C@@H]1CO        inactive
6             Nc1cccc2c(=O)[nH][nH]c(=O)c12        inactive

Incoming: I would be grateful if you could share the reported cytotoxicity call for CC(=O)OCC(=O)C1(O)CCC2C3CCC4=CC(=O)CCC4(C)C3C(O)CC21C (stereo not drawn) .
Outgoing: inactive

Incoming: I would be grateful if you could share the reported cytotoxicity call for "COc1ccc(S(=O)(=O)Nc2ccc3c(c2)CC(=O)N([C@@H](C)CO)C[C@H](C)[C@@H](CN(C)S(=O)(=O)c2cccs2)O3)cc1" .
Outgoing: inactive

###

System: HepG2
Experiment: cytotoxicity call (relative viability < 0.9)
Conditions: 10 µM
In all, about 39,000 compounds went through this assay and about 3,300 (8.5%) were called active. This excerpt belongs to a sample that is enriched for actives.
Measurement type: cytotoxicity call

Record excerpt, results attached:
> print(dat)
                                   compound   measurement.type  measured.value
1  C[C@@H]1CCCCO[C@H](CN(C)Cc2ccc(C(F)(F)F)cc2)[C@H](C)CN([C@H](C)CO)C(=O)c2cc(NC(=O)CCCN(C)C)ccc2O1  cytotoxicity call        inactive
2  C[C@H]1CN([C@@H](C)CO)C(=O)Cc2cc(NC(=O)Cn3cnnn3)ccc2O[C@H]1CN(C)C(=O)Nc1ccc(C(F)(F)F)cc1  cytotoxicity call        inactive
3  C[C@@H]1CN([C@H](C)CO)C(=O)c2cc(NC(=O)CCCN(C)C)ccc2O[C@@H](C)CCCCO[C@@H]1CN(C)Cc1ccc(C(F)(F)F)cc1  cytotoxicity call        inactive
4  CCN(CC)CCNC(C(=O)OCCC(C)C)c1ccccc1.Cl.Cl (stereo not drawn)  cytotoxicity call        inactive
5  C[C@@H]1CCCCO[C@@H](CN(C)Cc2ccc(C(F)(F)F)cc2)[C@@H](C)CN([C@@H](C)CO)C(=O)c2cc(NC(=O)CCCN(C)C)ccc2O1  cytotoxicity call        inactive
6  CCO[C@@H]1OC(C(=O)N2CCN(Cc3ccccc3)CC2)=C[C@H](c2ccc(C(F)(F)F)cc2)[C@H]1CCCOC(=O)NCCCCCC(=O)NO  cytotoxicity call        inactive

Incoming: I would be grateful if you could share the reported cytotoxicity call for "C[C@H]1CCCCO[C@@H](CN(C)Cc2ccc(C(F)(F)F)cc2)[C@@H](C)CN([C@@H](C)CO)C(=O)c2cc(NC(=O)CCCN(C)C)ccc2O1" .
Outgoing: inactive

###

Tested on: HepG2
Experiment: cytotoxicity call (relative viability < 0.9)
Settings: 10 µM
In all, about 39,000 compounds went through this assay and about 3,300 (8.5%) were called active. This is one part of a sample in which actives are shown more often than they occur.
Write down the outcome that applies. Available outcomes: t = active, f = inactive

> print(dat)
                                smiles.repr  experimental.system  classification
1  C[C@@H]1CN([C@H](C)CO)C(=O)c2cc(C#Cc3ccccc3)cnc2O[C@H]1CN(C)C(=O)CCN1CCCCC1                HepG2               f
2  C[C@@H]1CN([C@@H](C)CO)C(=O)c2cc(C#Cc3ccccc3)cnc2O[C@@H]1CN(C)C(=O)CCN1CCCCC1                HepG2               f
3  Cc1cccc(S(=O)(=O)N2C[C@@H](O)COC[C@@H]3O[C@@H](CC(=O)NCCCN4CCOCC4)CC[C@H]32)c1                HepG2               f
4  C[C@H](CO)N1C[C@H](C)[C@@H](CN(C)C(=O)CCN2CCCCC2)Oc2ncc(C#Cc3ccccc3)cc2C1=O                HepG2               f
5  C[C@H]1CN([C@@H](C)CO)S(=O)(=O)c2ccc(-c3ccncc3)cc2O[C@@H]1CN(C)S(=O)(=O)c1ccccc1F                HepG2               f
6  C[C@H]1CN([C@@H](C)CO)C(=O)c2cc(C#Cc3ccccc3)cnc2O[C@@H]1CN(C)C(=O)CCN1CCCCC1                HepG2               t

Continue with the molecule presented below.
Incoming: For "O=C(C[C@@H]1C[C@H]2c3cc(NC(=O)Cc4ccncc4)ccc3O[C@H]2[C@@H](CO)O1)NCc1cccc(F)c1" , what call appears in the results of this test?
Outgoing: f

Values from the antibiotic and cytotoxicity screens of Wong et al. (2023)
